# System: MCF7
# test_summary: Antiproliferative activity against human MCF7 cells assessed as inhibition of cell growth measured after 72 hrs by MTT assay
# Format: functional, cell-based
# test_conditions: MCF7, 72 h
measured_endpoint: IC50 (µM)

compound	measurement_target	value_units	value
OCCN1CCN(CCCN2c3ccccc3Sc3ccc(C(F)(F)F)cc32)CC1	MCF7	µM	24.6
CS(=O)(=O)CCN(Cc1ccc(-c2ccc3ncnc(Nc4ccc(OCc5cccc(F)c5)c(Cl)c4)c3c2)o1)C(=O)CCC(=O)OCCN1CCN(CCCN2c3ccccc3Sc3ccc(Cl)cc32)CC1	MCF7	µM	3.62
CC(=O)c1cc2c(o1)C(=O)c1ccccc1C2=O	MCF7	µM	11.4
CS(=O)(=O)CCN(Cc1ccc(-c2ccc3ncnc(Nc4ccc(OCc5cccc(F)c5)c(Cl)c4)c3c2)o1)C(=O)CCC(=O)OCCN1CCN(CCCN2c3ccccc3Sc3ccc(C(F)(F)F)cc32)CC1	MCF7	µM	6.38
CS(=O)(=O)CCN(Cc1ccc(-c2ccc3ncnc(Nc4ccc(OCc5cccc(F)c5)c(Cl)c4)c3c2)o1)C(=O)CCCC(=O)OCCN1CCN(CCCN2c3ccccc3Sc3ccc(C(F)(F)F)cc32)CC1	MCF7	µM	9.16

a = CS(=O)(=O)CCNCc1ccc(-c2ccc3ncnc(Nc4ccc(OCc5cccc(F)c5)c(Cl)c4)c3c2)o1
b = CC(OC(=O)CCCC(=O)N(CCS(C)(=O)=O)Cc1ccc(-c2ccc3ncnc(Nc4ccc(OCc5cccc(F)c5)c(Cl)c4)c3c2)o1)c1cc2c(o1)C(=O)c1ccccc1C2=O (stereo not given)
Asked: Would you let me know which has the greater IC50 value, a or b ? Reply with the label of the item you choose.
Given back: a
(a: 12.6 µM, b: 3.86 µM)

P = OCCN1CCN(CCCN2c3ccccc3Sc3ccc(Cl)cc32)CC1
Q = CC(OC(=O)CCC(=O)N(CCS(C)(=O)=O)Cc1ccc(-c2ccc3ncnc(Nc4ccc(OCc5cccc(F)c5)c(Cl)c4)c3c2)o1)c1cc2c(o1)C(=O)c1ccccc1C2=O (stereo not given)
R = CS(=O)(=O)CCN(Cc1ccc(-c2ccc3ncnc(Nc4ccc(OCc5cccc(F)c5)c(Cl)c4)c3c2)o1)C(=O)CCCC(=O)OCCN1CCN(CCCN2c3ccccc3Sc3ccc(Cl)cc32)CC1
Asked: Reorder the items by IC50, least to greatest. Order the labels as requested and list them.
Given back: Q, R, P

====

Form field: Ratio IC50 (one value per entry).
# test_summary: Resistant factor, ratio of IC50 for antiproliferative activity against drug-tolerant human MDA-MB-231 cells to IC50 for human MDA-MB-231 cells
# Type: functional
Just the number, please, no unit attached.

Some solved entries appear below for comparison.
molecule	Ratio IC50
CC(OC(=O)CCCC(=O)N(CCS(C)(=O)=O)Cc1ccc(-c2ccc3ncnc(Nc4ccc(OCc5cccc(F)c5)c(Cl)c4)c3c2)o1)c1cc2c(o1)C(=O)c1ccccc1C2=O (stereo unspecified)	0.82
CC(=O)c1cc2c(o1)C(=O)c1ccccc1C2=O [NAPABUCASIN]	0.88
OCCN1CCN(CCCN2c3ccccc3Sc3ccc(C(F)(F)F)cc32)CC1 [FLUPHENAZINE]	0.86
CS(=O)(=O)CCN(Cc1ccc(-c2ccc3ncnc(Nc4ccc(OCc5cccc(F)c5)c(Cl)c4)c3c2)o1)C(=O)CCC(=O)OCCN1CCN(CCCN2c3ccccc3Sc3ccc(C(F)(F)F)cc32)CC1	1.17

Asked: Which Ratio IC50 reading was recorded for the molecule "CS(=O)(=O)CCN(Cc1ccc(-c2ccc3ncnc(Nc4ccc(OCc5cccc(F)c5)c(Cl)c4)c3c2)o1)C(=O)CCCC(=O)OCCN1CCN(CCCN2c3ccccc3Sc3ccc(C(F)(F)F)cc32)CC1" ?
Given back: 1.08

Asked: Name the recorded Ratio IC50 for CC(OC(=O)CCC(=O)N(CCS(C)(=O)=O)Cc1ccc(-c2ccc3ncnc(Nc4ccc(OCc5cccc(F)c5)c(Cl)c4)c3c2)o1)c1cc2c(o1)C(=O)c1ccccc1C2=O (stereo unspecified) .
Given back: 1.62
